- System: pJNK in HCT-116 cells
- METHOD DESCRIPTION: Phospho-JNK (Thr183/Tyr185) Meso Scale ELISA assay, TNFα-stimulated HCT-116 cells
- Type: cell-based
- MEASUREMENT CONTEXT: Homo sapiens, read-out: mean HCT-116 pJNK ELISA IC50 (Col. B)
pIC50: −log10 of the molar value. Counter-ions that a name gives are not always drawn.
MEASURE NAME: pIC50

Cn1cc(-c2cnc(N)c3oc(-c4c[nH]c5cnccc45)cc23)cn1 [Example 88, trifluoroacetic acid salt] ... 6.00 to 7.00

[Q] Reported pIC50 for CS(=O)(=O)N1CCC(n2cc(-c3cnc(N)c4oc(-c5cccc6cnccc56)cc34)cn2)CC1 [Example 80] : what is it?
[A] > 7.00

[Q] Which measured pIC50 value corresponds to Nc1ncc(-c2cnn([C@H]3CC[C@H](O)C3)c2)c2cc(-c3csc4cnccc34)oc12 [Example 307] ?
[A] 6.00 to 7.00

[Q] State the recorded pIC50 for this entry: CC(C)(C)OC(=O)N1CCC(n2cc(-c3cnc(N)c4oc(-c5cccc6cnsc56)cc34)cn2)CC1 [Example 302]
[A] 6.00 to 7.00

[Q] Please report the recorded pIC50 for CC(=O)N1CCC(n2cc(-c3cnc(N)c4oc(-c5cc(C(F)(F)F)cc(C(F)(F)F)c5)cc34)cn2)CC1 [Example 91] .
[A] 5.00 to 6.00

[Q] Recorded pIC50 of Cc1ncc(-c2cnc(N)c3oc(-c4csc5cnccc45)cc23)s1 [Example 388, trifluoroacetate] , please.
[A] 6.00 to 7.00

Hello, the source for this data is patent US8378104B2, in case you need it.
